Experiment description: Half life in Sprague-Dawley rat at 5 mg/kg, po
Assay type: ADME, organism-based
Set-up: dose 5 mg/kg, route oral
Experimental parameters: in vivo

| Smiles record | Value unit | half-life |
| --- | --- | --- |
| COc1ccc(-c2cc(-c3ccc(S(C)(=O)=O)cc3)cnc2N)cn1 | h | 8.7 |

---

Tested on: Plasmodium falciparum
Experiment description: Antimalarial activity against blood stage of Plasmodium falciparum 3D7 assessed as parasite viability after 72 hrs by SYBR green dye-based assay
Assay type: functional, organism-based
Experimental parameters: 3D7, 72 h
pIC50: −log10 of the molar value.

| Compound | pIC50 |
| --- | --- |
| NC1=Nc2ccc(Cl)cc2C1(O)c1ccccc1 (stereo unspecified) | 6.67 |
